# System: Klebsiella pneumoniae
# condition: Concentration 20 uM; ASSAY_TEST Inhibition of Bacterial Growth; detection method Absorption (OD600); MEDIA CAMHB; plate type 384well; NBS; CORNING #3640; time 18 hr
# Description: Antibacterial activity against Klebsiella pneumoniae MDR ATCC 70063 (CO-ADD:GN_003); MIC in CAMBH media using NBS plates, by OD(600)
Entries with a potency or affinity are not part of this list.
Quick reference: Inhibition of the listed items.
Write the value in % as a bare number.

Below: 5 compounds and their reported Inhibition.
COC(=O)C1CC(O)C(O)C(O)C1 (stereo not drawn) : 15.79
NC(=O)SCC(=O)Nc1ccccc1C(=O)O : 23.65
O=[N+]([O-])c1cc(-c2cccnc2)[nH]n1 : 30.86
O=C1c2ccccc2NC(c2cc(Cl)cc(Cl)c2O)N1CCc1ccccn1 (stereo not drawn) : 12.19
O=C(O)c1cc(O)ccc1/N=N/c1ccccc1 : 5.36

# ---- query compound ----
Case "CCOc1nsc(OCC)n1" , Klebsiella pneumoniae, Inhibition recorded as -1.83

----------
Consider the following compounds and their measured Inhibition readings.
# Tested on: Candida albicans
# condition: 20 µM
# Description: Antifungal activity against Candida albicans ATCC 90028 (CO-ADD:FG_001); MIC in YNB media using NBS plates, by OD630
Potency and affinity values are given separately.
Numeric answer only, unit % assumed.

CN1CCc2ccccc2C1Cc1ccccc1NC(=O)c1sc2ccccc2c1Cl (configuration not stated) : 2.39

According to the records, this compound "Cn1ncc2c(Sc3ccc(Cl)cc3)ncnc21" displays Inhibition of 4.47

response.value for "CCCNC(=O)c1ccccc1C(=O)NC1(C(=O)NCCC)CCCC1" (field: Inhibition) = -0.46

# Inhibition of "O=CN/C=C\c1cc(O)ccc1O" = 4.27

----------
# Tested on: Acinetobacter baumannii
# assay_remarks: Antibacterial activity against Acinetobacter baumannii ATCC 19606 (CO-ADD:GN_034); MIC in CAMBH media using NBS plates, by Resazurin F(560/590)
# Type: functional
# condition: Concentration 20 uM, ASSAY_TEST Inhibition of Bacterial Growth, detection method Resazurin, Fluorescence (ex560/em590), MEDIA CAMHB, plate type 384well, CORNING #3640, time 18 hr
quantity: Inhibition (%)
Field: numeric (%). Do not append units.

Quick note, Inhibition for O=S1(=O)CCC(N(/N=C/c2ccco2)c2ccccc2)C1 (stereo unspecified) landed at -4.36

Summary for this molecule, "CCCN(CCC)CC(=O)N1CC(=O)Nc2ccccc21" : Inhibition is -3.41

Memo: Br.C=CC1CN2CCC1CC2C(O)c1ccnc2ccc(OC)cc12 (stereo unspecified) , reported Inhibition: 0.49

----------
Reported Inhibition values for the following compounds.
# Test system: Escherichia coli
# assay_remarks: Antibacterial activity against Escherichia coli ATCC 25922 (CO-ADD:GN_001); MIC in CAMBH media using NBS plates, by Resazurin F(560/590)
# Type: functional
# condition: Concentration 20 uM, ASSAY_TEST Inhibition of Bacterial Growth, detection method Resazurin, Fluorescence (ex560/em590), MEDIA CAMHB, plate type 384well, CORNING #3640, time 18 hr
# value in %; strip the unit string

COC(=O)C1=CC(=O)N2CCN=C2S1 : -3.52
O=[N+]([O-])c1ccc(Cn2cnc3c(O)ncnc32)cc1 : 7.89
CN(C)Cc1c[nH]c2nccnc12 : 11.46
Nc1nc(S)c2ncn(C3CCCC3)c2n1 : 6.43
c1ccc(-c2cn3ccccc3n2)cc1 : 13.79
O=C(NN1CCCCC1)NN1CCCCC1 : 2.92

Proceeding to the next compound to report its Inhibition.
Entry "CCc1ccc(CCN2C(=O)c3ccccc3C2=O)nc1" under Escherichia coli had Inhibition of -1.52

----------
Property: Inhibition; scope: individual compounds
# System: Candida albicans
# condition: 20 µM
Potency and affinity values are given separately.
Numbers only; they are read as %.

CN(C)S(=O)(=O)c1ccccc1N=C=S : 4.38
O=C(O)c1cc(Cl)nnc1O : -1.79
NC(=O)Oc1cccc(OC(N)=O)c1 : 2.21
CC(=O)c1cc(O)c2ccccc2c1O : 24.1

For record "CC(C)(NC(=O)c1cc(Cl)c2ccccc2c1O)C(=O)O" the listed Inhibition is 5.1

For reference, reported Inhibition for "Cc1nc(C(N)=O)nc2ccccc12" stands at 0.61

// recorded Inhibition for "Nn1c(Cc2ccccc2)nnc1Cc1ccccc1" : 2.51

----------
Reported Inhibition is given for each of the following molecules.
# Tested on: Candida albicans
# condition: 20 µM
Results with a measured potency or affinity are listed apart.
# output: bare number, implied unit %

# count of solved cases: 2
FC(F)(F)c1cccc(OCC2CN=C(S)O2)c1 (configuration not stated) : 8.74
CC(=O)NCC1(O)CCCC(C)C1 (configuration not stated) : 1.28

// Inhibition lookup, molecule = "O=C(Nc1ccc2ccccc2c1)c1ccc(Cl)cc1Cl" , result: -0.67

// "Nc1cc2c3c(cccc3c1)C(=O)N(CCN1CCCC1)C2=O" : Inhibition value = -1.62

The value of Inhibition measured for the molecule "Cc1cc(OCCCCOc2ccc(C#N)cc2)ccc1[N+](=O)[O-]" turned out to be 7.31

The recorded Inhibition for entry "c1ccc2c(c1)Oc1cccc3cccc-2c13" equals 7.02

Summary for this molecule, "O=c1cc(-c2ccc(O)cc2)oc2c(O)c(O)c(O)c(O)c12" : Inhibition is 6.97

Reported Inhibition of COC(=O)C1(C)Cc2cc(OC(C)=O)c(OC(C)=O)cc2N1 (configuration not stated) : -3.71

Entry CCCCCCCCCCC(C(=O)O)C1(C(=O)O)CCC(=O)O1 (configuration not stated) — recorded Inhibition = 8.22

Memo: "Cc1ccc(NC(=S)NC(=O)c2ccccc2)cc1NC(=S)NC(=O)c1ccccc1" , reported Inhibition: -0.27

Value of measured Inhibition for the entry Cc1ccc(N2CCN(CC(O)COc3cccc(C)c3)CC2)cc1 (configuration not stated) : -0.24

# Inhibition of "Cn1cnc([N+](=O)[O-])c1N=C(N)N" = -4.73

----------
# Test system: Escherichia coli
# assay_remarks: Antibacterial activity against Escherichia coli ATCC 25922 (CO-ADD:GN_001); MIC in CAMBH media using NBS plates, by Resazurin F(560/590)
# Assay type: functional
# condition: Concentration 20 uM, ASSAY_TEST Inhibition of Bacterial Growth, detection method Resazurin, Fluorescence (ex560/em590), MEDIA CAMHB, plate type 384well, CORNING #3640, time 18 hr
quantity: Inhibition (%)
Give your result in % as a bare value.

CC(=O)Oc1ccc(OC(C)=O)c2c1CC1(C)OC1(C)C2 (stereo not drawn) : 3.36
O=C(O)C(Cc1c[nH]c2ccccc12)N1C(=O)c2ccccc2C1=O (stereo not drawn) : -5.16
CCNc1nc(Cl)nc(-c2cn(-c3ccccc3)c3ccccc23)n1 : 4.37
OC(COc1ccccc1)CN1CCN(c2ccccc2)CC1 (stereo not drawn) : 3.6
Oc1ncnc(CN2CCCCC2)c1O : 7.79

Entry "Cc1ccc(NC(=O)N2CCN(C)CC2)cc1NC(=O)N1CCN(C)CC1" ; Inhibition = -22.66

----------
Consider the following compounds and their measured Inhibition readings.
# System: Escherichia coli
# assay_remarks: Antibacterial activity against Escherichia coli ATCC 25922 (CO-ADD:GN_001); MIC in CAMBH media using NBS plates, by Resazurin F(560/590)
# Type: functional
# condition: Concentration 20 uM, ASSAY_TEST Inhibition of Bacterial Growth, detection method Resazurin, Fluorescence (ex560/em590), MEDIA CAMHB, plate type 384well, CORNING #3640, time 18 hr
Record the value in %, omitting the unit from your answer.

COCC(=O)Oc1cc(-c2ccc(C)cc2C)c(OC(=O)COC)c(-c2ccc(C)cc2C)c1 : 6.56
O=c1cc(-c2ccccc2)oc2ccc(O)cc12 [6-HYDROXYFLAVONE] : -5.6
ClC(Cl)(Cl)C1=Nc2c(nnn2Cc2ccccc2)CN1 : 14.39

Fill in: Escherichia coli Inhibition for CSc1ncc2ncn(C3OC(CO)C(O)C3O)c2n1 (stereo not given) = -9.56

For the compound "Cc1ccc(CC#N)c(-c2c(CC#N)ccc(C)c2C)c1C" , the measured Inhibition on Escherichia coli was 13.28

Field Inhibition (system: Escherichia coli) for entry "CCCCNC(=O)Nc1ccccc1CC" = 0.25

// Inhibition (Escherichia coli) for "CC(C)(C(N)=O)c1ccccc1" = 13.36

----------
Below: a set of entries, each annotated with reported Inhibition.
# System: Staphylococcus aureus
# assay_remarks: Antibacterial activity against Staphylococcus aureus MRSA ATCC 43300 (CO-ADD:GP_020); MIC in CAMBH media using NBS plates, by Resazurin F(560/590)
# Assay type: functional
# condition: Concentration 20 uM, ASSAY_TEST Inhibition of Bacterial Growth, detection method Resazurin, Fluorescence (ex560/em590), MEDIA CAMHB, plate type 384well, CORNING #3640, time 18 hr
Hi! Could you send only the number? It should be in %, unit omitted.

Example results:
Cc1ccc(Nc2c(O)ncnc2O)cc1C : -23.26
CCCCCc1cc(O)nc(S)n1 : 5.4
CC(=O)OCCn1c2nc(=O)[nH]c(=O)c-2nc2cc(C)c(C)cc21 : -0.64

Inhibition reading for "Nc1n[nH]c(Nc2ccccc2)n1" : 19.31

Lab book: Inhibition of O=S1(=O)CCC(N(/N=C/c2ccco2)c2ccccc2)C1 (configuration not stated) noted as 6.29

Entry "Cc1ccc(Nc2ccc(N)cc2S(=O)(=O)O)cc1" ; Inhibition = 11.37

The molecule "COC(=O)c1cc(C)nc2c(C)cc3[nH]c4ccccc4c3c12" showed Inhibition equal to -3.37
